Assay Protocol: qHTS Assay for Lipid Storage Modulators in Drosophila S3 Cells; further: potency means the concentration at half of the fitted maximal effect
Settings: BODIPY lipid droplet fluorescence, 18-24 h, cells fed with added oleic acid; series mostly up to 46.1 µM
The whole screen tested about 320,000 compounds, of which about 2,100 (0.66%) were called active. Inconclusive results (about 53%) are left out. This is one part of a sample in which actives are shown more often than they occur.
Observable: Potency

The cases that follow already have their Potency on record.
{"Compound": "CC1(C)CC(O)C(C)(C)N1O (stereo not drawn)", "Potency": "inactive"}
{"Compound": "Cc1ccccc1NC(=O)c1ccccn1", "Potency": "inactive"}
{"Compound": "O=c1c(Cl)c(NCc2ccc(F)cc2Cl)cnn1C12CC3CC(CC(C3)C1)C2", "Potency": "inactive"}
{"Compound": "COC(=O)c1ccc(NS(=O)(=O)c2c(C)[nH]c(C)c2C(=O)N2CCCC2)cc1", "Potency": "inactive"}
{"Compound": "COc1ccc(/C=C2\\N=C3CCCCCN3C2=O)cc1OC", "Potency": "inactive"}
{"Compound": "CC(=O)N1CCN(S(=O)(=O)c2cccc(C(=O)OCc3cccc(F)c3)c2)CC1", "Potency": "6.51 µM (active)"}
{"Compound": "O=c1c(Cl)c(NCc2ccco2)cnn1C12CC3CC(CC(C3)C1)C2", "Potency": "inactive"}
{"Compound": "CCOc1ccc(C(=O)CCC(=O)N(CC)CC(=O)NCc2cccs2)cc1", "Potency": "inactive"}
{"Compound": "O=C1CCCC(=O)N1c1ccc(N2CCN(c3ccccc3)CC2)c([N+](=O)[O-])c1", "Potency": "inactive"}
{"Compound": "Cn1ccs/c1=N\\C(=O)Nc1cccc(Cl)c1", "Potency": "inactive"}

Record request: Potency value, item COc1ccc(C)cc1NC(=O)C1CCCN(S(=O)(=O)c2cccc3cccnc23)C1 (stereo not drawn)
inactive

Also Clc1ccc(-c2nnc(Sc3nc4ccccc4o3)c3ccccc23)cc1 , if possible.
inactive

Also Cc1[nH]c(C)c(S(=O)(=O)NCCc2ccccc2)c1C(=O)N1CCCC1 , if possible.
inactive

Also COc1ccc(NC(=O)C2CCN(S(=O)(=O)c3cccc4cccnc34)CC2)cc1OC , if possible.
inactive

====

Property: cell number change; scope: individual compounds
Assay Protocol: qHTS Assay for Lipid Storage Modulators in Drosophila S3 Cells;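 on cell number change: cells counted by Cell Tracker Red CMTPX staining in the red channel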
Settings: BODIPY lipid droplet fluorescence, 18-24 h, cells fed with added oleic acid; measured here: cell count max response
About 2,100 (0.66%) of roughly 320,000 compounds were called active. About 53% were inconclusive and are not listed. Many of the other results were omitted from the sample, so actives are more common in it than they were.

The cases that follow already have their cell number change on record.
{"Compound": "O=C1CC(N2CCN(c3ccc(F)cc3)CC2)C(=O)N1c1ccc(F)cc1 (centres undefined)", "Observable": "cell number change", "Reported Result": "-10.9%"}
{"Compound": "CCc1cccc2c(C(=O)COC(=O)c3cccc(S(=O)(=O)N(C)C4CCCCC4)c3)c[nH]c12", "Observable": "cell number change", "Reported Result": "6.53%"}
{"Compound": "CCOc1ccc(NC(=O)C2CCCN2S(=O)(=O)c2ccc(OCC)cc2)cc1 (centres undefined)", "Observable": "cell number change", "Reported Result": "9.72%"}
{"Compound": "COc1ccc(CNc2nc3ccccc3n2Cc2ccc(Cl)cc2)cc1OC", "Observable": "cell number change", "Reported Result": "-0.354%"}
{"Compound": "CCN(Cc1ccccc1)S(=O)(=O)c1ccc(C(=O)N(CCCN(C)C)c2nc3cc(OC)ccc3s2)cc1", "Observable": "cell number change", "Reported Result": "7.95%"}

Record request: cell number change value, item CC1=CC(C)(C)N(C(=O)CSc2nnc(N)s2)c2cc(C)c(C)cc21
6.05%

Also COC(=O)C(C)Sc1n[nH]c(=S)s1 (centres undefined) , if possible.
12.5%

Also Cc1cccc(C(=O)N2CCN(c3ncnc4c3cnn4-c3ccccc3)CC2)c1 , if possible.
-21.5%

Also CC(=O)NCCC(=O)Nc1nc(-c2cccs2)c(-c2cccs2)s1 , if possible.
13.4%

Also COc1ccc(NC(=O)C2CCCN2S(=O)(=O)c2ccc(F)cc2)cc1 (centres undefined) , if possible.
-1.12%

Also COc1ccc(CCCC(=O)NC2CCCCC2)cc1 , if possible.
0.276%

Also CCOc1ccc(NC(=O)C2CCCN(S(=O)(=O)c3ccc4[nH]c(=O)ccc4c3)C2)cc1 (centres undefined) , if possible.
23.6%

Also C=CCn1c(SCC(=O)Nc2nccs2)nnc1-c1cc2cccc(OC)c2o1 , if possible.
-25.4%

Also O=C(c1ccc(C(F)(F)F)cc1)C1CCCN(Cc2cccn2-c2ncccn2)C1 (centres undefined) , if possible.
20.4%

Also CCCCN(C(=O)c1nn(C)c(=O)c2ccccc12)c1c(N)n(CC(C)C)c(=O)[nH]c1=O , if possible.
3.88%

Also O=C(c1ccccc1)N1CCN(c2ncnc3c2cnn3-c2ccccc2)CC1 , if possible.
-7.55%

Also COc1ccc(OC)c(NC(=O)CCN2CCCCC2)c1 , if possible.
-3.94%

Also CCc1cccc(NC(=O)C2CCCN(S(=O)(=O)c3ccc4[nH]c(=O)ccc4c3)C2)c1 (centres undefined) , if possible.
16%

Also CCOc1ccccc1C(=O)NC(CO)C(=O)O (centres undefined) , if possible.
-20.4%

Also O=C(NCC1CCCO1)c1ccc2c(c1)C(=O)N(c1cccc([N+](=O)[O-])c1)C2=O (centres undefined) , if possible.
-9.52%

Also O=C(NCN1CCc2ccccc2C1)c1ccccc1 , if possible.
0.788%
